- test-target: T1, recombinant human 4R0N tau (human, UniProt P10636 2-758)
- T1 construct: also called recombinant 4R0N human tau; P10636-6
- T1 sequence (P10636 other isoform, or with tags, fused parts or gaps limits assumed): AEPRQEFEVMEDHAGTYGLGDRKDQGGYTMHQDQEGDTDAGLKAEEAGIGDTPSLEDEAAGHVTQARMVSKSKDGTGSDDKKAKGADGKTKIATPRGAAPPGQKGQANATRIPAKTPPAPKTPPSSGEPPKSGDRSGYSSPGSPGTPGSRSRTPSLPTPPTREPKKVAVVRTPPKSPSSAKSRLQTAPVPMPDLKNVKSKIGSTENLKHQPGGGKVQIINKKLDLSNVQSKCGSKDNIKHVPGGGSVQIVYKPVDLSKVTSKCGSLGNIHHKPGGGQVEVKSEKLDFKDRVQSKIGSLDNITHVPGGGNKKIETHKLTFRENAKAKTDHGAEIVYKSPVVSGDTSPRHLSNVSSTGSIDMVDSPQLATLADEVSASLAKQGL
- test-name: SPR Biacore T200; antibody captured by anti-human Fc; tau as analyte; global 1:1 fit
measured-parameter: koff

[[record]]
binder = "hu9F5VHv9/hu9F5VLv8_DIM30 (antibody, V domains shown) VH: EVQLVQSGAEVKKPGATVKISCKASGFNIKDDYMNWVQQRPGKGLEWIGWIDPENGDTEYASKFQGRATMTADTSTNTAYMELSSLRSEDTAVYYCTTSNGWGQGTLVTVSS VL: DIQMTQSPFSLPVTPGESASISCRSSKSLSHSNGITYLYWYQQKPGQSPQLLIYQGSNLASGVPNRFSSSGSGTDFTLKISRVEAEDVGVYYCAQNIELPLTFGQGTKLEIK"
recorded_result = "0.000447 s⁻¹"

